Entry source: the EternaBench riboswitch data

Each item that follows carries a reported apparent Kd.
Tested on: MS2 coat protein
METHOD: apparent Kd, MS2 coat protein; higher = weaker binding; RNA-MaP array
COND: designed as: OFF switch for flavin mononucleotide; no ligand
Write the numeric value and append its unit.

[
  {
    "ITEM_SEQUENCE": "GACUACCAGGAAGGAUAUGCCUAUAACUGAAAGACAUGAGGAUCACCCAUGUAUUGGGCGAACCUGCAGAAGGUCCGACUAGAC",
    "ASSAYED_SYSTEM": "MS2 coat protein",
    "MEASURED_QUANTITY": "apparent Kd",
    "RESULT": "40.6 nM"
  },
  {
    "ITEM_SEQUENCE": "AGACCCAGAGGAUAUAACACAUGUAACAUGAGGAUCACCCAUGUGUCUAGUAGACACUUGUUAGAAGGCAGGCAUG",
    "ASSAYED_SYSTEM": "MS2 coat protein",
    "MEASURED_QUANTITY": "apparent Kd",
    "RESULT": "83.2 nM"
  },
  {
    "ITEM_SEQUENCE": "UCGUCGCUUCAGAAGGACAGACAAUCGUGCACUGUAGGAUAUGAGACGCGACAUGAGGAUCACCCAUGUGAACGGUUCGUAUAA",
    "ASSAYED_SYSTEM": "MS2 coat protein",
    "MEASURED_QUANTITY": "apparent Kd",
    "RESULT": "25.1 nM"
  }
]

Item under review: `CUCUAUCAGCAAGGAUAUGGGAGGUGUCGAGUUCCAGAAGGUGCACAUGAGACAUGAGGAUCACCCAUGUUGUGUAGUCCUCGA` . Reported apparent Kd?
10.8 nM

// lookup apparent Kd for `CAAAUAUAGUCAGGAUAUGUUCGAAAGGGUGCACAUGAGGAUCACCCAUGUCAUAAGACACUAGCACAGAAGGGACCCGAGAGA`
149 nM

Give its apparent Kd value. Item: `ACACAUGAGGAUCACCCAUGUAGAUAUGGGCUCACUAUCACUAGAAGGACUUUGCUCUCUUGGAAGUAGGAUAUAGUACGCUGG`
163 nM

Give its apparent Kd value. Item: `GCAAAGUAAGAAGGAUAUGCGUCCGGUGAACAACAACGCGAUCGAACAUGAGGAUCACCCAUGUCGCAGAAGGUCUGAGAAUUC`
27.4 nM

Requested field: apparent Kd. Item: `UCCCGACAUGAGGAUCACCCAUGUCCAUUGUCGGUCGAGAGUAAGGAUAUAGAUAAUCAGGAGAACUAGAAGGUACUGUUAGCG`
530 nM
